src = PubChem BioAssay (NCI)

system: DU-145 prostate; assay: NCI-60 one-dose screen, 48 h (100 = growth as untreated, 0 = no growth, -100 = all killed); conditions: 10 µM
Compounds without any hit were thinned out: in the full panel of roughly 83,000, 20% have a hit.
// reported growth per item
Give the value in % but do not write % after it.

Lookup: What measured growth goes with "O=C/C=C/c1ccc([N+](=O)[O-])cc1Cl" ?
Found: 99.9

Lookup: What measured growth goes with "O=[N+]([O-])c1ccc2c(c1)Cc1cc(I)ccc1-2" ?
Found: 116

Lookup: What measured growth goes with "COc1ccc2nc(/C=C/c3ccc(N(C)C)cc3)sc2c1" ?
Found: 111

Lookup: What measured growth goes with "O=C(O)c1ccc(CNc2ccc(C(=O)CCl)cc2)cc1" ?
Found: 101

----------
// reported growth per item
Test system: SK-OV-3 ovarian
Assay: NCI-60 one-dose screen, 48 h (100 = growth as untreated, 0 = no growth, -100 = all killed)
Conditions: 10 µM
Experimental: Growth inhibition of the SK-OV-3 human tumor cell line is measured as a screen for anti-cancer activity. Cells are grown in 96 well plates and exposed to the test compound for 48 hours. Compounds are tested at a single concentration, which is 10^-5 M for most compounds. The reported endpoint is percent growth (GI% or GIPRCNT), where numbers from 0 - 100% represent growth inhibition, and numbers from -100% - 0 represent cell death. For example, a value of 40 represents 60% growth inhibition. […]
About 83,000 compounds went through this panel and 20% of them were active in at least one assay; those are over-represented in the sample as a whole.
Give the value in % but do not write % after it.

Worked cases, growth given:
CC(=O)N(O)c1ccc(/C=C/c2ccccc2)cc1 : 9.48
CCCCCCCC/C=C/CCCCCCCCC1=NCCN1CCO : 97.8
Cc1cc(C)c2nc(C)c(C)[n+]([O-])c2c1 : 85.4

Next up:
Lookup: What measured growth goes with "O=S(=O)(NC1c2ccccc2Oc2ccccc21)c1cc(Cl)ccc1Cl" ?
Found: 98.1

----------
system: HS 578T breast; assay: NCI-60 one-dose screen, 48 h (100 = growth as untreated, 0 = no growth, -100 = all killed); conditions: 10 µM
The panel holds about 83,000 compounds, 20% with a hit somewhere; the sample as a whole holds those more often.
// reported growth per item
Give the value in % but do not write % after it.

C/C(=N/NC(=O)c1sc(=S)n(C)c1N)c1cc2cc(Cl)ccc2o1 : 5.99
COc1cccc(C(=O)NNc2nc(N3CCOCC3)nc(N3CCN(C(c4ccccc4)c4ccccc4)CC3)n2)c1 : 80.1
COc1ccc(-c2csc(NC(=O)CO[N+](=O)[O-])n2)cc1 : 104

Lookup: What measured growth goes with "CCc1cc2n(n1)-c1ncc(C(=O)OC)cc1Oc1ccccc1-2" ?
Found: 97

Lookup: What measured growth goes with "COc1cc(-c2nc3ccc(C)cc3[nH]2)ccc1OCc1nnc(-c2ccc(CC(C)C)cc2)o1" ?
Found: 84

Lookup: What measured growth goes with "CS(=O)(=O)Nc1ccc([N+](=O)[O-])cc1Oc1ccccc1" ?
Found: 98.2

Lookup: What measured growth goes with "O=C1/C(=C/c2ccc(O)cc2O)N=C2SCCCN12" ?
Found: 105

----------
// reported growth per item
system: HT29 colon; assay: NCI-60 one-dose screen, 48 h (100 = growth as untreated, 0 = no growth, -100 = all killed); conditions: 10 µM
The panel holds about 83,000 compounds, 20% with a hit somewhere; the sample as a whole holds those more often.
Give the value in % but do not write % after it.

N#CC1C=Cc2c(ccc3ccccc23)N1C(=O)c1ccccc1 (stereo not given) : 8.15
CC(=O)OC1Oc2ccccc2-c2oc(=O)c(-c3cc(=O)oc4cc(O)ccc34)cc21 (stereo not given) : 86.9
O=C(Nc1ccc(OS(=O)(=O)Cc2ccccc2)cc1)C12CC3CC(CC(C3)C1)C2 : 9.75
Cc1cc(C(C)(C)CC(C)(C)C)ccc1OCCOCC[N+](C)(C)Cc1ccccc1 : -81.2
C#Cc1ccc(-n2c(/C=C/c3cc(OC)c(OC)c(OC)c3)nc3ncccc3c2=O)cc1 : 16
COc1ccc(-c2nnc(SC/C(=N\O)c3ccccc3)o2)cc1 : 95

Lookup: What measured growth goes with "CC(=O)[C@H]1CC[C@H]2[C@@H]3CC[C@@H]4CC=C(C=O)C[C@]4(C)[C@H]3CC[C@]12C" ?
Found: 90.7

Lookup: What measured growth goes with "O=C(CCc1ccccc1)N1CCN(C(=O)CCc2ccccc2)CC1" ?
Found: 101

Lookup: What measured growth goes with "O=C(Nc1cccc([N+](=O)[O-])c1)NN1CCCCCC1" ?
Found: 107

Lookup: What measured growth goes with "COc1cc(CSc2nc3ccc(Cl)cc3c(=O)n2-c2ccccc2)cc(OC)c1OC" ?
Found: 67

Lookup: What measured growth goes with "CCn1nc(-c2ccc(C(=O)OC)cc2)nc2c(=O)n(C)c(=O)nc1-2" ?
Found: 70.7

Lookup: What measured growth goes with COc1cc(C2C(C#N)=C(c3c[nH]c4ccccc34)Nc3nc(N)[nH]c(=O)c32)cc(OC)c1OC (stereo not given) ?
Found: 107

Lookup: What measured growth goes with CCC1(C)OC(=O)NC1=O (stereo not given) ?
Found: 99.9

Lookup: What measured growth goes with "O=C(O)CCCN1C(=O)NC2(C1=O)c1ccccc1-c1ccccc12" ?
Found: 93.3

Lookup: What measured growth goes with C[N+]1(CC2CO2)CCCCCC1 (stereo not given) ?
Found: 112

Lookup: What measured growth goes with "COc1cc(/C=C/C(=O)c2cc(-c3ccc(C(F)(F)F)cc3)ccc2O)cc(OC)c1OC" ?
Found: 60.5

----------
System: SK-MEL-2 melanoma
Experiment: NCI-60 one-dose screen, 48 h (100 = growth as untreated, 0 = no growth, -100 = all killed)
Details: 10 µM
Protocol: Growth inhibition of the SK-MEL-2 human tumor cell line is measured as a screen for anti-cancer activity. Cells are grown in 96 well plates and exposed to the test compound for 48 hours. Compounds are tested at a single concentration, which is 10^-5 M for most compounds. The reported endpoint is percent growth (GI% or GIPRCNT), where numbers from 0 - 100% represent growth inhibition, and numbers from -100% - 0 represent cell death. For example, a value of 40 represents 60% growth inhibition. […]
Compounds without any hit were thinned out: in the full panel of roughly 83,000, 20% have a hit. Activity calls are given as the source filed them. The calls were made as follows: active = growth percent below 10; inactive = the rest.
// reported growth per item

Worked cases, growth given:
COc1cc(NS(C)(=O)=O)ccc1Nc1c2ccc(Cl)cc2nc2c(OC)cccc12 : -45.2% (active)
Cc1[nH]nc2c(=S)[nH]c(=O)[nH]c12 : 109% (inactive)
CCCCCCCCCCCCCC[n+]1ccc(C)cc1 : 13.2% (inactive)
COc1cccc2c1O/C(=C\c1ncc([N+](=O)[O-])n1C)C2=O : -51.5% (active)
CCCCCCCCCCCC(c1ccccc1)N(C)C (configuration not stated) : 116% (inactive)

Lookup: What measured growth goes with "Fc1ccc2[nH]c3c(NCCCN4CCOCC4)ncnc3c2c1" ?
Found: 65.7% (inactive)

Lookup: What measured growth goes with "C[C@@H]1N=C(c2ccc(Br)cc2)Nc2nc3ccccn3c2C1=O" ?
Found: 47.4% (inactive)

----------
test system: SK-MEL-2 melanoma; experiment: NCI-60 one-dose screen, 48 h (100 = growth as untreated, 0 = no growth, -100 = all killed); settings: 10 µM
About 83,000 compounds went through this panel and 20% of them were active in at least one assay; those are over-represented in the sample as a whole.
MEASURE: growth (%)
Give the value in % but do not write % after it.

Worked cases, growth given:
Cc1ccc(/C(CS(=O)(=O)c2ccc(C)cc2)=N\O)cc1 : 104
COc1ccc(C(=O)/C=C/c2cc(-c3ccc(OC)c(OC)c3)n[nH]2)cc1OC : 42.7
CCCCc1ccc(NC(=O)N(CCCl)N=O)cc1 : 94.8

Lookup: What measured growth goes with "CCOC(=O)/C(C#N)=C(/C)C1CC1" ?
Found: 111

----------
Test system: SK-MEL-5 melanoma
Test: NCI-60 one-dose screen, 48 h (100 = growth as untreated, 0 = no growth, -100 = all killed)
Conditions: 10 µM
Method: Growth inhibition of the SK-MEL-5 human tumor cell line is measured as a screen for anti-cancer activity. Cells are grown in 96 well plates and exposed to the test compound for 48 hours. Compounds are tested at a single concentration, which is 10^-5 M for most compounds. The reported endpoint is percent growth (GI% or GIPRCNT), where numbers from 0 - 100% represent growth inhibition, and numbers from -100% - 0 represent cell death. For example, a value of 40 represents 60% growth inhibition. […]
This is part of a sample that, as a whole, favours compounds with a hit. Of some 83,000 tested, about 20% had one in any assay.
We label by threshold. Values of growth strictly beneath 90% are MET. Values of 90% and up are NOT MET.

Take a look at these entries with their results.
O=C(COc1ccc(Cl)cc1Cl)Oc1coc(CSc2nc3ccccc3s2)cc1=O : MET
NC(=O)C12C(=O)NC(=O)C1(C(=O)O)C21CCCC1 (stereo not given) : NOT MET
O=C(CCc1ccccc1)N1CCN(C(=O)CCc2ccccc2)CC1 : NOT MET
COc1cc(OC)cc(-c2ccc(-c3ccc(C(=N)N)cn3)o2)c1 : MET
O=C(NC1CCN(Cc2ccccc2)CC1)c1cc(-c2ccncc2)nc2ccc(Cl)cc12 : MET
Cc1ccc(C2C=C(c3ccc(Cl)cc3)N=C3SC=CN32)c(Br)c1 (stereo not given) : MET
COc1cc2nc(Sc3sc(N)nc3C)n(-c3ccc(Oc4ccccc4)cc3)c(=O)c2cc1OC : MET
COCCOC(=O)NC(=O)Nc1ccc(/C(=N/O)c2ccc(Cl)cc2)cc1 : MET
COc1ccc(-c2ccc(-c3ccc(C(=N)N)c(F)c3)s2)cc1 : MET
C=C1C(=O)O[C@H]2[C@H]1CC/C(COC(=O)OCCCCCOC(=O)OC/C1=C/CC[C@@]3(C)O[C@H]3[C@H]3OC(=O)C(=C)[C@@H]3CC1)=C\CC[C@@]1(C)O[C@@H]21 : MET

Lookup: hey, is growth for NC1CCC(Nc2nc(NCc3ccc(-c4ccco4)nc3)c3ncn(C4CCCC4)c3n2)CC1 (stereo not given) lower than 90% or not?
Found: MET
